The origin of these recorded values is paper PMC7732531.

# test name: Pharmacokinetics in rats with ABT pretreatment (intestinal and hepatic availability)
# test settings: rat, plasma, iv, 0.5 mg/kg, AUC(0-∞), rats, i.v. ABT, i.v. YL-IPA08 (0.5 mg/kg)
quantity measured: AUC(0-inf) (ng·h/mL)
One number for each entry, in ng·h/mL.

Q: Quick one: AUC(0-inf) of "CCN(Cc1ccccn1)C(=O)Cc1c(-c2ccc(Cl)c(Cl)c2)nc2cc(C)ccn12" ?
A: 476

###

# test name: Pharmacokinetics in rats with ABT pretreatment (intestinal and hepatic availability)
# test settings: rat, plasma, po, 1 mg/kg, with ABT 100 mg/kg p.o., 15 h before dosing
quantity measured: Cmax
Express your answer as a number followed by its unit.

Q: May I ask what Cmax has been recorded for "CCN(Cc1ccccn1)C(=O)Cc1c(-c2ccc(Cl)c(Cl)c2)nc2cc(C)ccn12" ?
A: 176 ng/mL

###

# test name: Bioavailability study in rats (i.v. and p.o.)
# Format: in vivo
# test settings: male, SD, rat, plasma, po, p.o. 10 mg/kg
quantity measured: AUC(0-inf)
Please answer using a numeric value trailed by its unit.

Q: Which AUC(0-inf) is listed for "CCN(Cc1ccccn1)C(=O)Cc1c(-c2ccc(Cl)c(Cl)c2)nc2cc(C)ccn12" ?
A: 107 ng·h/mL

###

# test name: Bioavailability study in rats (i.v. and p.o.)
# Assay type: in vivo
# test settings: male, SD, rat, plasma, iv, i.v. 0.3 mg/kg
quantity measured: AUC(0-inf) (ng·h/mL)
Numbers only, in ng·h/mL.

Q: Look up AUC(0-inf) for this molecule: CCN(Cc1ccccn1)C(=O)Cc1c(-c2ccc(Cl)c(Cl)c2)nc2cc(C)ccn12 [YL-IPA08]
A: 71.3

###

# test name: Bioavailability study in rats (i.v. and p.o.)
# Assay type: in vivo
# test settings: male, SD, rat, plasma, po, p.o. 3 mg/kg
quantity measured: AUC(0-inf) (ng·h/mL)
Numbers only, in ng·h/mL.

Q: Please report the recorded AUC(0-inf) for CCN(Cc1ccccn1)C(=O)Cc1c(-c2ccc(Cl)c(Cl)c2)nc2cc(C)ccn12 [YL-IPA08] .
A: 39.9

###

# test name: Pharmacokinetics in rats with ABT pretreatment (intestinal and hepatic availability)
# test settings: rat, plasma, intravenous, 0.5 mg/kg, Plasma concentration, rats, i.v. 50 mg/kg ABT, i.v. 0.5 mg/kg YL-IPA08, 0.083 h
quantity measured: concentration at 0.083 h (ng/mL)
Numbers only, in ng/mL.

Q: Query: concentration at 0.083 h; subject: "CCN(Cc1ccccn1)C(=O)Cc1c(-c2ccc(Cl)c(Cl)c2)nc2cc(C)ccn12"
A: 285

###

# test name: Pharmacokinetics in rats with ABT pretreatment (intestinal and hepatic availability)
# test settings: rat, plasma, iv, 0.1 mg/kg
quantity measured: AUC(0-t)

Q: What AUC(0-t) value was documented for this molecule, "CCN(Cc1ccccn1)C(=O)Cc1c(-c2ccc(Cl)c(Cl)c2)nc2cc(C)ccn12" ?
A: 125 ng·h/mL

###

# test name: Bioavailability study in rats (i.v. and p.o.)
# Format: in vivo
# test settings: male, SD, rat, plasma, po, p.o. 3 mg/kg
quantity measured: AUC(0-t) (ng·h/mL)
Answers are plain numbers, in ng·h/mL.

Q: Which AUC(0-t) is reported for this molecule? CCN(Cc1ccccn1)C(=O)Cc1c(-c2ccc(Cl)c(Cl)c2)nc2cc(C)ccn12 [YL-IPA08]
A: 36.9

###

# test name: Bioavailability study in rats (i.v. and p.o.)
# Format: in vivo
# test settings: male, SD, rat, plasma, po, p.o. 10 mg/kg, 0.25 h
quantity measured: concentration at 0.25 h

Q: Data request, read-out concentration at 0.25 h, for "CCN(Cc1ccccn1)C(=O)Cc1c(-c2ccc(Cl)c(Cl)c2)nc2cc(C)ccn12"
A: 20.5 ng/mL

###

# test name: Pharmacokinetics in rats with ABT pretreatment (intestinal and hepatic availability)
# test settings: rat, plasma, po, 1 mg/kg, with ABT 50 mg/kg i.v., 1 h before dosing
quantity measured: Cmax (ng/mL)
Give bare numbers, in ng/mL.

Q: Bench note: what Cmax did CCN(Cc1ccccn1)C(=O)Cc1c(-c2ccc(Cl)c(Cl)c2)nc2cc(C)ccn12 [YL-IPA08] show?
A: 41.8

###

# test name: Bioavailability study in rats (i.v. and p.o.)
# Format: in vivo
# test settings: male, SD, rat, plasma, po, p.o. 3 mg/kg, 8 h
quantity measured: concentration at 8 h

Q: Could you tell me which concentration at 8 h is on file for "CCN(Cc1ccccn1)C(=O)Cc1c(-c2ccc(Cl)c(Cl)c2)nc2cc(C)ccn12" ?
A: 1.95 ng/mL

###

# test name: in vivo
# test settings: male, SD, rat, po, 1 mg/kg, Plasma concentration
quantity measured: concentration at 1 h (ng/mL)
Answers are plain numbers, in ng/mL.

Q: Can you look up the measured concentration at 1 h of "CCN(Cc1ccccn1)C(=O)Cc1c(-c2ccc(Cl)c(Cl)c2)nc2cc(C)ccn12" for me?
A: 75.5

###

# test name: Bioavailability study in rats (i.v. and p.o.)
# Format: in vivo
# test settings: male, SD, rat, plasma, iv, i.v. 0.3 mg/kg, 0.083 h
quantity measured: concentration at 0.083 h (ng/mL)
Numbers only, in ng/mL.

Q: Which measured concentration at 0.083 h value corresponds to "CCN(Cc1ccccn1)C(=O)Cc1c(-c2ccc(Cl)c(Cl)c2)nc2cc(C)ccn12" ?
A: 140

###

# test name: Pharmacokinetics in rats with ABT pretreatment (intestinal and hepatic availability)
# test settings: rat, plasma, intravenous, 0.5 mg/kg, Plasma concentration, rats, i.v. 50 mg/kg ABT, i.v. 0.5 mg/kg YL-IPA08, 12 h
quantity measured: concentration at 12 h (ng/mL)
Numbers only, in ng/mL.

Q: Given the entry "CCN(Cc1ccccn1)C(=O)Cc1c(-c2ccc(Cl)c(Cl)c2)nc2cc(C)ccn12" , report its measured concentration at 12 h.
A: 6.73

###

# test name: Bioavailability study in rats (i.v. and p.o.)
# Type: in vivo
# test settings: male, SD, rat, plasma, po, p.o. 3 mg/kg
quantity measured: half-life (h)
One number for each entry, in h.

Q: Item under review: "CCN(Cc1ccccn1)C(=O)Cc1c(-c2ccc(Cl)c(Cl)c2)nc2cc(C)ccn12" . Reported half-life?
A: 2.47

###

# test name: Bioavailability study in rats (i.v. and p.o.)
# Type: in vivo
# test settings: male, SD, rat, plasma, iv, i.v. 0.3 mg/kg, 12 h
quantity measured: concentration at 12 h (ng/mL)
Numbers only, in ng/mL.

Q: For the molecule "CCN(Cc1ccccn1)C(=O)Cc1c(-c2ccc(Cl)c(Cl)c2)nc2cc(C)ccn12" , what concentration at 12 h is on record?
A: 0.48

###

# test name: Bioavailability study in rats (i.v. and p.o.)
# Format: in vivo
# test settings: male, SD, rat, plasma, po, p.o. 3 mg/kg, 6 h
# Method: Male SD rats (200-240 g) were obtained from Beijing Vital River Laboratory Animal Technology Co., Ltd. Animals were housed in a temperature- and humidity-controlled room with a 12 h light/dark cycle. […] Pharmacokinetic parameters were calculated by the noncompartmental method using WinNonlin 7.0 (Pharsight, CA). The area under the plasma concentration time curve (AUC) from time 0 to the last time point with a measurable concentration (AUC0-t) was calculated by trapezoidal method. […]
quantity measured: concentration at 6 h
Include the unit right after the number.

Q: Report concentration at 6 h for "CCN(Cc1ccccn1)C(=O)Cc1c(-c2ccc(Cl)c(Cl)c2)nc2cc(C)ccn12" please.
A: 2.35 ng/mL

###

# test name: Pharmacokinetics in rats with ABT pretreatment (intestinal and hepatic availability)
# test settings: rat, plasma, iv, 0.1 mg/kg, with ABT 100 mg/kg p.o., 15 h before dosing
quantity measured: Vd (L/kg)
Give bare numbers, in L/kg.

Q: Tell me the measured Vd of CCN(Cc1ccccn1)C(=O)Cc1c(-c2ccc(Cl)c(Cl)c2)nc2cc(C)ccn12 [YL-IPA08] , please.
A: 1.54

###

# test name: Pharmacokinetics in rats with ABT pretreatment (intestinal and hepatic availability)
# test settings: rat, plasma, po, 1 mg/kg, with ABT 100 mg/kg p.o., 15 h before dosing
quantity measured: AUC(0-t)
Lab note: write values as number then unit, every time.

Q: Value lookup for AUC(0-t); key = "CCN(Cc1ccccn1)C(=O)Cc1c(-c2ccc(Cl)c(Cl)c2)nc2cc(C)ccn12"
A: 868 ng·h/mL

###

# test name: Bioavailability study in rats (i.v. and p.o.)
# Type: in vivo
# test settings: male, SD, rat, plasma, iv, i.v. 0.3 mg/kg
# Protocol: Male SD rats (200-240 g) were obtained from Beijing Vital River Laboratory Animal Technology Co., Ltd. Animals were housed in a temperature- and humidity-controlled room with a 12 h light/dark cycle. […] Pharmacokinetic parameters were calculated by the noncompartmental method using WinNonlin 7.0 (Pharsight, CA). The area under the plasma concentration time curve (AUC) from time 0 to the last time point with a measurable concentration (AUC0-t) was calculated by trapezoidal method. […]
quantity measured: AUC(0-t)
Be sure to follow the number with its unit.

Q: Please report the recorded AUC(0-t) for "CCN(Cc1ccccn1)C(=O)Cc1c(-c2ccc(Cl)c(Cl)c2)nc2cc(C)ccn12" .
A: 70.6 ng·h/mL
